# % activity (max GFP signal loss compared to enfortumab mAb (100%)) per entry
# measured-target: T1, human Nectin-4-eGFP on T24 cells (clone 3) (human, UniProt Q96NY8 32-510)
# T1 sequence: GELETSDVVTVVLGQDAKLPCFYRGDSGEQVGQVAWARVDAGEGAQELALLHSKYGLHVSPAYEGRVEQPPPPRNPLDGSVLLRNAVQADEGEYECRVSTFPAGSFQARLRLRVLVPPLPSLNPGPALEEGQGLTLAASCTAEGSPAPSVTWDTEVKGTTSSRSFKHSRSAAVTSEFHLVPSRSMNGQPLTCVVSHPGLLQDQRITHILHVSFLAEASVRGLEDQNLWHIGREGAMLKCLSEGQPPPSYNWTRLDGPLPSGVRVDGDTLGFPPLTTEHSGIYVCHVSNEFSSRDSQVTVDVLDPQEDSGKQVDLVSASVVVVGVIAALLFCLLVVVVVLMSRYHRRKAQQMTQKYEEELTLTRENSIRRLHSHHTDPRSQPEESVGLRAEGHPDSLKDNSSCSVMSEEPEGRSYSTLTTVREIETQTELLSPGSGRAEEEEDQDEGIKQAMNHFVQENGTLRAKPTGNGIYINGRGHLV
# assay-details: cell-based or functional assay

Consider the following illustrative entries.
>>> test_result("Ab5 ADC (Ab5 conjugated as in Formula XI, DAR of 8) (antibody, human IgG1, kappa, L234A L235A, V domains shown, camptothecin analog linker-payload of Formula XI on cysteine thiols after full reduction, DAR of 8 per antibody; positions not given, Antibody-drug conjugate of Ab5; also called Ab5 (ADC column)) VH: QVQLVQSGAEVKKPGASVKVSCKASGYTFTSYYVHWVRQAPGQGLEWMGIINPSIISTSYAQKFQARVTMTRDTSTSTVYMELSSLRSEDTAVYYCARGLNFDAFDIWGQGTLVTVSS VL: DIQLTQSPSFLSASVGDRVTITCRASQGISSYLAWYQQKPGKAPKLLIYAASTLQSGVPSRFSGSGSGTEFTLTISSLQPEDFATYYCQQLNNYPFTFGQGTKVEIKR")
"112%"
>>> test_result("enfortumab (antibody, V domains shown) VH: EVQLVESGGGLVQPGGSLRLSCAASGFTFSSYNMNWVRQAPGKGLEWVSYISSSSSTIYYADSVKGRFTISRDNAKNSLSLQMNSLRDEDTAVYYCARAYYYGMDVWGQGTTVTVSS VL: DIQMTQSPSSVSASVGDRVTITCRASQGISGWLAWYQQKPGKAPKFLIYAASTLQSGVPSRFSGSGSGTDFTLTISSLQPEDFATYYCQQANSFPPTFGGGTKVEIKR")
"97%"
>>> test_result("Ab7 (antibody, human IgG1, lambda, L234A L235A, V domains shown, Unconjugated antibody; also called Antibody 7; nectin-4 antibody Ab7) VH: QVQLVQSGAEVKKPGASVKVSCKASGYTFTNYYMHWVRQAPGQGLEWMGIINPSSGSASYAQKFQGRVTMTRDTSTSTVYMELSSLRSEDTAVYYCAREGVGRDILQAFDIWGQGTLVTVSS VL: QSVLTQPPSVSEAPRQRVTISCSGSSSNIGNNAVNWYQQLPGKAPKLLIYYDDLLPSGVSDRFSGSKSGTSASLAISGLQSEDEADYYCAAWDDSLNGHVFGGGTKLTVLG")
"66.5%"

# ---- query binder ----
The reported % activity (max GFP signal loss compared to enfortumab mAb (100%)) of the binder Ab6 (antibody, human IgG1, lambda, L234A L235A, V domains shown, Unconjugated antibody; also called Antibody 6; nectin-4 antibody Ab6) VH: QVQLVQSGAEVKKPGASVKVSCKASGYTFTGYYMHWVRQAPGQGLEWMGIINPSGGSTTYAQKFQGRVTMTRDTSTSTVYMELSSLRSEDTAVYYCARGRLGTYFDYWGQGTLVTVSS VL: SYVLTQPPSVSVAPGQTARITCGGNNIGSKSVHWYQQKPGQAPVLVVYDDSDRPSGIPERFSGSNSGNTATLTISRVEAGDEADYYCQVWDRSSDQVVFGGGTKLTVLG was 65.1%

Where these numbers come from: patent US20250000991A1
